Tested on: RPMI-8226 leukemia
Test protocol: NCI-60 one-dose screen, 48 h
Condition details: 10 µM unless noted
This is part of a sample that, as a whole, favours compounds with a hit. Of some 83,000 tested, about 20% had one in any assay. Calls of active or inactive are those of the source. The calls were made as follows: active = growth percent below 10; inactive = the rest.
Just give me one of these, please: active, inactive

**Query** Please share the test call associated with CCCCCCCCCCN1CCC(N2CCCCC2)CC1 .
**Result** active

**Query** Please share the test call associated with COc1cccc(-c2nc3cc(NC(=O)c4ccc(Cl)c(C#N)c4)ccc3o2)c1 .
**Result** active

**Query** Please share the test call associated with Cc1cc(C)c2c(N)c3cccc(C)c3nc2n1 .
**Result** active

**Query** Please share the test call associated with CCCCCc1c(C)[nH]c(/C=C2\N=C(c3ccc[nH]3)C=C2Oc2ccc(Cl)cc2)c1C .
**Result** active

**Query** Please share the test call associated with OC(c1ccccc1)C(NCc1ccccc1)c1ccccc1 (stereo unspecified) .
**Result** inactive

**Query** Please share the test call associated with Cc1ccc(-c2csc(N)n2)cc1 .
**Result** inactive

**Query** Please share the test call associated with c1ccc(-c2nc(Nc3nccnn3)c3ccccc3n2)cc1 .
**Result** inactive

**Query** Please share the test call associated with C[C@H]1O[C@@H](O[C@H]2[C@@H](O)C[C@H](O[C@H]3[C@@H](O)C[C@H](O[C@H]4CC[C@]5(C)C6CC[C@]7(C)[C@@H](C8=CC(=O)OC8)CC[C@]7(O)C6CC[C@@H]5C4)O[C@@H]3C)O[C@@H]2C)C[C@H](O)[C@@H]1O (stereo partly specified) .
**Result** active

**Query** Please share the test call associated with COc1cccc(/C=C2\Cc3ccccc3C2=O)c1 .
**Result** inactive

**Query** Please share the test call associated with Nc1c(C(=O)Nc2cccc(Cl)c2)sc2nc3c(cc12)C(O)CCC3 (stereo unspecified) .
**Result** active

**Query** Please share the test call associated with CSc1nc(Nc2ccc(S(=O)(=O)Nc3ccon3)cc2)c(C#N)c(-c2ccc(Cl)cc2)n1 .
**Result** inactive

**Query** Please share the test call associated with CN1C(=O)C(C2=NN(C=O)C(c3ccc(F)cc3)C2)C(=O)N(C)C1=O (stereo unspecified) .
**Result** inactive

**Query** Please share the test call associated with COc1cc(/C=C2\CN(C)CC3=C2Nc2nc(SC)[nH]c(=O)c2C3c2cc(OC)c(OC)c(OC)c2)cc(OC)c1OC (stereo unspecified) .
**Result** active

**Query** Please share the test call associated with C[C@H](C(=O)N[C@@H](Cc1ccc(-c2ccccc2)cc1)C(=O)NC1CC(C)(C)NC(C)(C)C1)c1ccc(-c2ccccc2)c(F)c1 .
**Result** active

**Query** Please share the test call associated with N[C@H](CS)C(=O)O .
**Result** inactive

**Query** Please share the test call associated with Cc1ccc2c(c1)C(=O)/C(=C\Nc1ccc(C(N)=O)cc1)C(O)O2 (stereo unspecified) .
**Result** inactive

**Query** Please share the test call associated with FCc1ncc(-c2ccc(C(F)(F)F)cc2)c(NC2CCCCCC2)n1 .
**Result** active

**Query** Please share the test call associated with COc1ccc(-c2cc(-c3cccnc3)nc(S(=O)(=O)CC(=O)Nc3ccc(C)cc3)c2C#N)cc1OC .
**Result** inactive

**Query** Please share the test call associated with N#Cc1ncc(-c2ccc(C(F)(F)F)cc2)c(NC2CCCCCC2)n1 .
**Result** active

**Query** Please share the test call associated with COC(=O)C1CCN(S(=O)(=O)c2ccc(-c3ccccc3)cc2)CC1 .
**Result** inactive

**Query** Please share the test call associated with O=C(O)CCC(=O)OC[C@@H](NC(=O)C(Cl)Cl)[C@H](O)c1ccc([N+](=O)[O-])cc1 .
**Result** inactive

meta.source: PubChem BioAssay (NCI)
